These data points were gathered from patent US5703113A.

Items are presented alongside their recorded Decrease (of average arterial tension).
# System: normotensive rats
# Test Name: Decrease of blood pressure on normotensive rats measured by average arterial tension
# Format: in vivo, Wistar rats
# Design: unit not given here
# Condition Notes: 1 mg/kg i.d., time 30 min
Number only, please.

Enquiry: Fill in the blank: the reported Decrease (of average arterial tension) of COc1cc2c(cc1C#N)[C@@H](N1CCCC1=O)[C@H](O)C(C)(C)O2 (racemic) is ____.
Return: -7

====

Items are presented alongside their recorded Decrease (of average arterial tension).
# Tested on: normotensive rats
# Test Name: Decrease of blood pressure on normotensive rats measured by average arterial tension
# Type: in vivo, Wistar rats
# Parameters: unit not given here
# Condition Notes: 1 mg/kg i.d., time 1 min

# example entries with known answers
                                   compound  experimental_result
0  COc1cc2c(cc1OC)[C@@H](N1CCCC1=O)[C@H](O)C(C)(C)O2 (racemic)                  -51
1  COc1cc2c(cc1C#N)[C@@H](N1CCCC1=O)[C@H](O)C(C)(C)O2 (racemic)                  -33
2  CC1(C)Oc2ccc(C#N)cc2C(N2CCCC2=O)C1O (stereo not shown) [BRL 34915, reference compound]                  -67

Enquiry: Fill in the blank: the reported Decrease (of average arterial tension) of COc1cc2c(cc1[N+](=O)[O-])[C@@H](N1CCCC1=O)[C@H](O)C(C)(C)O2 (relative stereo) is ____.
Return: -6
